test system: Echinochloa oryzoides (Ard.) Fritsch.; assay: Preemergence weed control under flooded paddy conditions, ECHORC (Watergrass (Calif.)); format: in vivo; details: 0.0620 kg/ha; preemergence weeds, flooded paddy; herbicidal effect rating 0-9, three to four weeks after treatment
parameter.measured: ECHORC

Look over these answered cases.
>>> value_reported("COc1ccc(C)cc1-c1nsc2cc(Cl)c(-n3c(=O)cc(C(F)(F)F)n(C)c3=O)cc12")
9.0
>>> value_reported("Cn1c(C(F)(F)F)cc(=O)n(-c2ccc3snc(COC(=O)Cc4cccs4)c3c2)c1=O")
0.0
>>> value_reported("Cn1c(C(F)(F)F)cc(=O)n(-c2ccc3snc(C(SCCCO)SCCCO)c3c2)c1=O")
0.0
>>> value_reported("CC(=O)OCCSC(SCCOC(C)=O)c1nsc2ccc(-n3c(=O)cc(C(F)(F)F)n(C)c3=O)cc12")
0.0
>>> value_reported("CN(c1ccc(-c2nsc3ccc(-n4c(=O)cc(C(F)(F)F)n(C)c4=O)cc23)cc1)S(C)(=O)=O")
5.0
>>> value_reported("CONC(=O)c1nsc2ccc(-n3c(=O)cc(C(F)(F)F)n(C)c3=O)cc12")
2.0

Then this molecule:
# get_value(readout='ECHORC', item= `Cc1ccc(OCC(=O)NS(C)(=O)=O)c(-c2noc3cc(F)c(-n4c(=O)cc(C(F)(F)F)n(C)c4=O)cc23)c1` )
3.0
